- Assay Info: yeast display, Sf9 membrane polyspecificity reagent, FACS + sequencing; frameworks hold sequencing errors

Residue Codes	polyreactivity (PSR sort gate)
QVQLVESGGGLVQAGGSLRLSCAPSGGIFGRNAMGWYRQAPGKESELVAGITNGGSTTYADSVKGRFTISRDNAKNTVYLQMNSLKPEDTAVYYCAVQLYRRWPYYQTHGYDYWGQGTQVTVTS	low polyreactivity
QVQLVESGGGLVQAGGSLRLSSAASGSTFPVYALGWYRQAPGKERELVAAITRTGARTYYADSVKGRFTISRDNAKNTVYLQMNSLTPEDTAVYYCAARGAGGILGRYGYWGQGTKVTVSS	high polyreactivity
QVQLVESGAGLVQAGGSLRLSCAASGSIFVYYTMGCYRQAPGKEREFVAAISFSGGSTYADSVKGRFTISRDNAKNTVYLQMNSLKPEDTAVYYCNADRWLYTPSKFVEMDFWGQGTQVTVSS	low polyreactivity
QVQLVESGGGLVQAGGSLRLTCAASGRTFRSYAMGWYRQAPGKERELVAAISDGGSTNYADSVKGRFTISRDNAKNTVYLQMNSLKPEDTAVYYCAAEIFFAVFRFYYWGQGTQVTVSS	low polyreactivity
QDQHVDSGGGLVQAGGSLRLSCAASGFIFPQNAMGWYRQAPGKERELVAAISKRGGSTYYADSVKGRFTISRDNAKNTVYLQMNSLNPEDTAVYYCAVRYYFYRPGGYDYWGQGTQLTVSS	high polyreactivity

* * *

- Assay Info: yeast display, Sf9 membrane polyspecificity reagent, FACS + sequencing; frameworks hold sequencing errors
Assay Readout: polyreactivity (PSR sort gate)

Residue Codes	Result
QVQLVESGGGLVQAGGSLRLSCAASGFTSRKNAMGWYSQAPGKERELVAAITQSSGRTYYADSVKGRFTISRDNAKNTVYLQMNSLKPEDTAVYYCAARRGGEDDYWGQGTQVTVSS	low polyreactivity
QVQLVESGGGLVQAGGSLRLSCAASGRIFLFYAMGWYRQAPGKERELVAAISSTDDTYYADSVKGRFTISRDNAKNTVYLQMNSLKPEDTAVYYCAAYSIISQSEMYYWGQGTQVTVSS	low polyreactivity

* * *

- Assay Info: yeast display, Sf9 membrane polyspecificity reagent, FACS + sequencing; frameworks hold sequencing errors

Residue Codes	polyreactivity (PSR sort gate)
QVQHVESGGGLVQAGGSLRLSCAASGITFSSYAMGWYRQAPGKERELVAAISSGGSTYYADSVKGRFTISRDNAKNTVYFQMNSLKPEDTAVYYCAAELATYVPNKWYYRYTGYYYWGQGTQVTVSS	low polyreactivity
QVQLVESGGGLVQAGGSLRLSCAASGRIFSRYAMGWYRQAPGTERELVAAISASGGSTYYADSVKGRFTISRDNAKNTVYLQMNSLKPEDTAVYYCNAYQTSTTLFPGYGYWGQGTQVTVSS	low polyreactivity
QVQLVESGGGLVQAGGSLRLSCAASGRTFGIYVMGWYRQAPGKEMEWVAAIRGGGTTYYADSVKGRFTISRENAKNTVYLQMNSLKPEDTAVYYCAAVVKWWGQSRYDYWGQGTQVTVSS	high polyreactivity
QVQLVESGGCLVQAGGSLRLSCAASGSIFYWYAMGWFRQAPGKARELVAAITWSGVSTYYADSVKGRFTISRDNAKNTVDLQMNSLKREDTAVYYCAALVFGYSVFPYSYWGQGTQVTVSS	high polyreactivity
QVQLVESGGGLVQAGGSLRFICAASGRTFDWYAMGWYRPAPGKERELVAGNSWSGGSTYYADSVKGRFTISRDNAKNTVYLQMNSLKPEDTAVYYCAAEYPFEIGYVYYYIDYDYWGQGTQVTVSS	low polyreactivity
